Tested on: SF-539 CNS
Test: NCI tumour cell line growth inhibition, 48 h; in the data active means GI50 below about 0.43 µM; inactive means the rest
API: response.call in class 1 (active), class 0 (inactive)

Worked examples, 3 molecules total:
Cc1cc(Cl)ccc1Nc1nc(C(F)(F)F)ccc1C(=O)N/N=C/c1cccc(O)c1	class 0
O=C1/C(=C/c2ccc(Cl)cc2Cl)CN(S(=O)(=O)c2ccccc2)C/C1=C\c1ccc(Cl)cc1Cl	class 1
CCOc1cc2ncc(C#N)c(Nc3ccc(F)c(Cl)c3)c2cc1NC(=O)CC1CCSS1 (stereo unspecified)	class 0

In: Please share the test call associated with N#C/C(=C\c1ccc2c(c1)OCO2)n1nnc2ccccc21 .
Out: class 0

In: Please share the test call associated with COc1ccc2c(c1)C(=Nc1ccc(F)c(F)c1F)c1c-2c(Nc2ccc(F)c(F)c2F)nc2ccccc12 .
Out: class 0

In: Please share the test call associated with O=S(=O)(Nc1cccc(Cl)c1)c1ccc(-c2cnc(C3CC3)o2)cc1 .
Out: class 0

====

Listing of recorded GI50 by entry.
System: NCI/ADR-RES ovarian
Experiment: NCI tumour cell line growth inhibition, 48 h

COc1ccc(-c2nc(S(=O)(=O)c3ccccc3)c(S(=O)CC(=O)N3CCC(C)CC3)o2)cc1 (stereo not drawn)	3.1 µM
O=C1Nc2ccccc2/C1=C/C(=N/c1nnc(-c2ccc(Cl)cc2)s1)c1ccccc1	3.31 µM
COc1cc(/C=C\c2cc(/C=C\c3ccc(O)c(OC)c3)n(C(=O)COc3ccc(Cl)cc3Cl)n2)ccc1O	0.538 µM
C=C1C(=O)O[C@H]2[C@H]1CC/C(COC(=O)NCc1ccc(Cn3c(=O)sn(CCCC)c3=O)cc1)=C\CC[C@@]1(C)O[C@@H]21	27.8 µM
CC(=O)Oc1cn(-c2ccc(Cl)cc2)nc1C1=NN(C(C)=O)C(c2ccc(F)cc2F)O1 (stereo not drawn)	42.9 µM

In: Look up GI50 for this compound: CC[C@H](C)[C@H](NC(=O)C12CC(NC)(C1)C2)C(=O)N(C)[C@H](C[C@@H](OC(C)=O)c1nc(C(=O)N[C@@H](Cc2ccccc2)C[C@H](C)C(=O)OC)cs1)C(C)C
Out: > 25 µM

In: Look up GI50 for this compound: COc1ccc2c(c1)C(=Nc1ccc(F)c(F)c1F)c1c-2c(Nc2ccc(F)c(F)c2F)nc2ccccc12
Out: 37.4 µM

In: Look up GI50 for this compound: CCOC(=O)C(=Cc1ccc(-c2ccccc2)cc1)C(=O)OCC
Out: 3 µM

====

Tested on: MDA-N
Assay: NCI tumour cell line growth inhibition, 48 h
Listing of recorded TGI by entry.

Reference set, count: 5
Cc1ccc(NN=NCCCCN=NNc2ccc(C)cc2)cc1	> 100 µM
COc1ccc(NC(C)=O)cc1N1C(=O)/C(=C\c2cccc(Oc3ccccc3)c2)S(=O)(=O)C1c1ccccc1 (centres undefined)	53.6 µM
[N-]=[N+]=NCC1OCC(O)C(OCc2ccccc2)C1OCc1ccccc1 (centres undefined)	> 100 µM
O=C(O)C1Cc2c([nH]c3ccccc23)C(CCCCO)N1 (centres undefined)	> 100 µM
NC(N)=NCCCC(NC(=O)OCCCCCn1ccc(N)nc1=O)C(=O)O (centres undefined)	> 100 µM

In: Look up TGI for this compound: CCOC(=O)Oc1ccc(C(CNC(C)C)OC(=O)OCC)cc1OC(=O)OCC (centres undefined)
Out: > 100 µM

In: Look up TGI for this compound: CC1=C(C)C2(C#N)C(=O)N3C(=NC(c4ccccc4)NC3c3ccccc3)C2(C#N)C(c2ccccc2)N1 (centres undefined)
Out: > 100 µM

In: Look up TGI for this compound: CC(=O)O[C@@H]1C(C2CCCCC2)C=[N+]([O-])O[C@@H]1OC1CCCC1(c1ccccc1)c1ccccc1 (some centres undefined)
Out: 12.2 µM

In: Look up TGI for this compound: N=c1c2c(=S)n(-c3ccccc3)c(=S)n(-c3ccccc3)c2nc(SCCCN2CCCCC2)n1-c1ccccc1
Out: 3.33 µM

In: Look up TGI for this compound: CCOC1CCC2C(CCC(/C=C/c3ccc(O)c4ncccc34)N2C)C1 (centres undefined)
Out: > 100 µM

In: Look up TGI for this compound: COC(=O)C1C(O)C(C)C(O)C(C)(O)C=C(C)C2=C3C(=C(C)C(=O)c4c(O)c(c(C)c(OC(C)=O)c43)NC(=O)C(C)=C/C=C\C(C)(O)C(O)C(C)C1O)OCO2 (centres undefined)
Out: > 100 µM

In: Look up TGI for this compound: CN(C)CCNC(=O)c1cccc2c(NC(CCCN=C(N)N)C(=O)O)c3ccccc3[n+](C)c12 (centres undefined)
Out: > 100 µM

In: Look up TGI for this compound: CC(C)=NNC1=NC(C)(C)P(=O)(NNc2ncccn2)S1 (centres undefined)
Out: > 100 µM

====

System: U251 CNS
Assay: NCI tumour cell line growth inhibition, 48 h
Listing of recorded TGI by entry.

Reference set, count: 5
CCOC(=O)C(C(C)=O)C1CC=CC1 (stereo not given)	> 100 µM
Cc1cccc(C)c1NC(=O)/C=C/c1ccccc1	> 100 µM
COc1ccc(Cc2nn(C3OC(COC(C)=O)C(OC(C)=O)C(OC(C)=O)C3OC(C)=O)c(=S)n(-c3ccc(OC)cc3)c2=O)cc1 (stereo not given)	> 100 µM
COc1cccc(CNCCN2C(=O)c3ccc4c5c(ccc(c35)C2=O)C(=O)N(CCNCc2cccc(OC)c2)C4=O)c1	5.16 µM
Cc1cc(Cl)ccc1Nc1nc(C(F)(F)F)ccc1C(=O)N/N=C/c1cccc(O)c1	19.8 µM

In: For the record Cc1ccc(N=Nc2c(O)c(C(=O)O)cc3ccccc23)c(S(=O)(=O)O)c1 , what value of TGI is listed for U251 CNS?
Out: > 100 µM

In: For the record COc1ccc(N=NC(=O)NC(CC(C)C)C(=O)NC(CC(C)C)C(=O)O)cc1 (stereo not given) , what value of TGI is listed for U251 CNS?
Out: > 100 µM

In: For the record CC(=O)/C(N=Nc1ccc(-n2c(C)nc3ccccc3c2=O)cc1)=C(/C)O , what value of TGI is listed for U251 CNS?
Out: > 100 µM

In: For the record O=C(O)C1Cc2c([nH]c3ccccc23)C(CCCCO)N1 (stereo not given) , what value of TGI is listed for U251 CNS?
Out: > 100 µM

In: For the record COP(=O)(OC)/C(=C\C1=CN(C(c2ccccc2)(c2ccccc2)c2ccccc2)CN1)NC=O , what value of TGI is listed for U251 CNS?
Out: 29.8 µM

====

Test system: A549 NSCLC
Experiment: NCI tumour cell line growth inhibition, 48 h
endpointName: TGI (µM)
Number only, in µM; omit the unit.

CC(=O)Oc1ccc2c3c1[C@H]1O[C@H]1c1cccc(c1-3)[C@@H]1O[C@H]21	22.1

In: For the record COc1cc([C@@H]2c3cc4c(cc3[C@@H](NC(=O)c3cccc(C#N)c3)C3COC(=O)[C@@H]32)OCO4)cc(OC)c1O (some centres undefined) , what value of TGI is listed for A549 NSCLC?
Out: 2.51

In: For the record NCCN1C(=O)c2cc(Cl)c(Cl)cc2C1(O)c1ccc(Cl)cc1 (centres undefined) , what value of TGI is listed for A549 NSCLC?
Out: 4.76

In: For the record Oc1ccc(-c2nc3ccc(F)cc3s2)cc1 , what value of TGI is listed for A549 NSCLC?
Out: 43.1

In: For the record C=C1C(=O)O[C@@H]2C[C@@H]3[C@]4(CC[C@]5(C)[C@@H]([C@H](C)CC/C=C(\C)C=O)CC[C@@]35C)C[C@]4(CCC(=O)OC)[C@H]12 , what value of TGI is listed for A549 NSCLC?
Out: 13.9

In: For the record COc1ccc2c(c1)/C(=C\c1c(-c3ccccc3)nc3n1CCS3)C(=O)N2 , what value of TGI is listed for A549 NSCLC?
Out: 55.9

====

Tested on: SN12C renal
Experiment: NCI tumour cell line growth inhibition, 48 h
Listing of recorded GI50 by entry.

Reference set, count: 3
COc1ccc2c(c1)C(=Nc1ccc(F)c(F)c1F)c1c-2c(Nc2ccc(F)c(F)c2F)nc2ccccc12	> 58.6 µM
O=C1C(C(Nc2ccccc2)c2ccccc2)=C([O-])c2ccccc21.O=C1C(C(Nc2ccccc2)c2ccccc2)=C([O-])c2ccccc21.[Ni+2] (centres undefined)	4.56 µM
C[C@H](Nc1ccc2c(c1)OCCn1cc(N3C(=O)OC[C@H]3C(F)F)nc1-2)C(N)=O	13 µM

Next:
In: Look up GI50 for this compound: Cc1ccc(C2CC(c3cccc(Nc4ccncc4)c3)=NN2c2cc(Cl)cc(Cl)c2)cc1 (centres undefined)
Out: 1.71 µM

====

Tested on: EKVX NSCLC
Assay: NCI tumour cell line growth inhibition, 48 h
Listing of recorded TGI by entry.

CCN(CC)c1ccc(/C=C/C2=NN(c3cccc(S(=O)(=O)O)c3)C3(C2)SCC(=O)N3c2nc3ccccc3s2)cc1 (stereo not drawn)	> 100 µM

In: For the record CN(C)CCN(C)CCC(=O)/C=C/c1ccccc1 , what value of TGI is listed for EKVX NSCLC?
Out: > 93.8 µM

In: For the record COc1ccc2c3c([nH]c2c1)C(=O)c1nc(C)ccc1C3=O , what value of TGI is listed for EKVX NSCLC?
Out: > 100 µM

In: For the record COC(=O)C1C(O)C(C)C(O)C(C)(O)C=C(C)C2=C3C(=C(C)C(=O)c4c(O)c(c(C)c(OC(C)=O)c43)NC(=O)C(C)=C/C=C\C(C)(O)C(O)C(C)C1O)OCO2 (stereo not drawn) , what value of TGI is listed for EKVX NSCLC?
Out: > 100 µM

In: For the record CCOC(=O)Oc1ccc(C(CNC(C)C)OC(=O)OCC)cc1OC(=O)OCC (stereo not drawn) , what value of TGI is listed for EKVX NSCLC?
Out: > 100 µM

In: For the record COc1ccc2c(c1)/C(=C\c1c(-c3ccccc3)nc3n1CCS3)C(=O)N2 , what value of TGI is listed for EKVX NSCLC?
Out: 48 µM

In: For the record C=CCC(NCc1ccccc1)[C@H](OCc1ccccc1)[C@@H]1COC(C)(C)O1 (stereo partly drawn) , what value of TGI is listed for EKVX NSCLC?
Out: > 100 µM

In: For the record CN(C)C=Nc1ccc2c3c(cccc13)-c1ccccc1-2 , what value of TGI is listed for EKVX NSCLC?
Out: 22.4 µM

Provenance of the data: PubChem BioAssay (NCI)
